Test: Cell viability of HL-60 cells, trypan blue exclusion method
Assay type: cell-based
Details: human, 4 μM, 4 days incubation

COMPOUND	viability at 4 days, 4 µM, %
CC(=O)OC1CCC2(C)C(CCC3C4(C)CCC5(C)CCC(C)C(C)C5C4=CC(=O)C32C)C1(C)C(=O)O (stereo not drawn) [IV, Acetyl-11-keto-β-Boswellic Acid]	96.5

###

Assay: Cell viability of HL-60 cells, trypan blue exclusion method
Assay type: cell-based
Conditions: human, 16 μM, 4 days incubation
METRIC: viability at 4 days, 16 µM

                                   compound  value
0  CC(=O)OC1CCC2(C)C(CCC3C4(C)CCC5(C)CCC(C)C(C)C5C4=CC(=O)C32C)C1(C)C(=O)O (stereo not shown)  96.7%
